- target-or-system: LIMK1KD (Homo sapiens, UniProt P53667)
- Construct: His6 (N, cleaved yes); made in house; host or cells: baculovirus; Sf9 for virus, TriEx insect cells for expression
- Sequence (P53667 330-637): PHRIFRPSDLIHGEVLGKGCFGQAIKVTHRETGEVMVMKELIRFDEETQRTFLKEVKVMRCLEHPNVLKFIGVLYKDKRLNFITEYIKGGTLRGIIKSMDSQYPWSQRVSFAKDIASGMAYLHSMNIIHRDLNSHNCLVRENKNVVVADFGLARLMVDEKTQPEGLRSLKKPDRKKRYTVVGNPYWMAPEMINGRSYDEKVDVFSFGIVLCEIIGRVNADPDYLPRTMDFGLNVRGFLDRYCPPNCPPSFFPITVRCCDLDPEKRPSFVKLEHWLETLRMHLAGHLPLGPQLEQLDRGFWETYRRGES
- protocol-text: Differential (dynamic) scanning fluorimetry (DSF) assay, LIMK1KD
- Type: binding
- protocol-conditions: 2 µM LIMK1KD, compound 10 µM, single shot
experimental-readout: TM Shift LIMK1 (K)
# number only, unit K dropped from output

Sample answers from the record:
molecule: CN1CCC(CNc2ccc3ncc(-c4cccc(OC(F)(F)F)c4)n3n2)CC1 [SGI-1776 free base]
target-or-system: LIMK1KD (Homo sapiens, UniProt P53667)
experimental-readout: TM Shift LIMK1 (K)
unit-of-measure: K
assay-result: 1.7
//
molecule: CCN(CCO)CCCOc1ccc2c(Nc3cc(CC(=O)Nc4cccc(F)c4)[nH]n3)ncnc2c1 [AZD1152-HQPA, Barasertib]
target-or-system: LIMK1KD (Homo sapiens, UniProt P53667)
experimental-readout: TM Shift LIMK1 (K)
unit-of-measure: K
assay-result: 0.6

# TM Shift LIMK1 (K) of CN[C@@H]1C[C@H]2O[C@@](C)([C@@H]1OC)n1c3ccccc3c3c4c(c5c6ccccc6n2c5c31)C(=O)N[C@H]4O [UCN-01] = 1.2
